System: ovarian OVCAR-3
Assay: COMPARE screening (NCI human cancer cell line screen), cytotoxicity GI50
Format: cell-based
Label class 1 when GI50 is strictly below 1000 nM; otherwise label class 0.

In plain terms, does COc1ccc2c(c1)C(=O)c1c-2n(CCCn2ccnc2)c(=O)c2cc([N+](=O)[O-])ccc12 come in under 1000 nM for GI50?
class 1

Is GI50 of NCCCn1c2c(c3ccccc3c1=O)C(=O)c1ccccc1-2 [Compound S-3, reference compound] strictly below 1000 nM?
class 0

I'd appreciate it if you could check whether O=C(O)C(F)(F)F.O=C(O)C(F)(F)F.O=C(O)C(F)(F)F.O=C1c2ccccc2-c2c1c1ccccc1c(=O)n2CCNCCNCCNCCn1c2c(c3ccccc3c1=O)C(=O)c1ccccc1-2 [Compound 14i] has GI50 smaller than 1000 nM.
class 0

Determine if Cl.NCCCn1c2c(c3ccccc3c1=O)C(=O)c1ccccc1-2 shows GI50 strictly lower than 1000 nM.
class 0

Check if GI50 falls below 1000 nM for O=C1c2ccccc2-c2c1c1ccccc1c(=O)n2CCCn1ccnc1 .
class 0

* * *

System: colon HCT-116
Assay: COMPARE screening (NCI human cancer cell line screen), cytotoxicity GI50
Type: cell-based
reported-metric: GI50 (nM)
Give the quantity in nM, number only.

Consider the worked cases shown below.
# molecule, unit-name, GI50
data = [
    ("O=C(O)C(F)(F)F.O=C(O)C(F)(F)F.O=C1c2ccccc2-c2c1c1ccccc1c(=O)n2CCNCCNCCn1c2c(c3ccccc3c1=O)C(=O)c1ccccc1-2 [Compound 14c]", "nM", 29),
    ("O=C1c2ccccc2-c2c1c1ccc([N+](=O)[O-])cc1c(=O)n2CCCN1CCOCC1 [Compound 5bi]", "nM", 38),
    ("Cl.NCCCCn1c2c(c3ccccc3c1=O)C(=O)c1ccccc1-2 [Compound 5an]", "nM", 100),
    ("COc1cc2c3c(n(CCCN4CCN(C)CC4)c(=O)c2cc1OC)-c1cc2c(cc1C3=O)OCO2 [Compound 5t]", "nM", 1480),
    ("Cl.NCCn1c2c(c3ccccc3c1=O)C(=O)c1ccccc1-2 [Compound 5al]", "nM", 270),
]

I'd like to know its GI50. The molecule in question is CC(C)(C)OC(=O)NCCCCCCCCCCCn1c2c(c3ccccc3c1=O)C(=O)c1ccccc1-2 [Compound 5aj]
35500

Which GI50 reading was recorded for the molecule CC(C)(C)OC(=O)NCCCCCCCCn1c2c(c3ccccc3c1=O)C(=O)c1ccccc1-2 [Compound 5ag] ?
25700

* * *

Below: a set of entries, each annotated with reported GI50.
System: colon HCT-116
Test: COMPARE screening (NCI human cancer cell line screen), cytotoxicity GI50
Assay type: cell-based

Please review the entries below; each comes with its answer.
# compound, reported-metric, observed-result
rows = [
    ("COc1ccc2c(c1)C(=O)c1c-2n(CCCn2ccnc2)c(=O)c2ccccc12 [Compound 5bs]", "GI50", "110 nM"),
    ("NCCCn1c2c(c3ccccc3c1=O)C(=O)c1ccccc1-2 [Compound S-3, reference compound]", "GI50", "180 nM"),
    ("O=C(O)C(F)(F)F.O=C(O)C(F)(F)F.O=C(O)C(F)(F)F.O=C1c2ccccc2-c2c1c1ccccc1c(=O)n2CCNCCNCCNCCn1c2c(c3ccccc3c1=O)C(=O)c1ccccc1-2 [Compound 14i]", "GI50", "112 nM"),
    ("O=C1c2ccccc2-c2c1c1ccccc1c(=O)n2CCNCCO [Compound S-2, oracin, reference compound]", "GI50", "1120 nM"),
    ("CC(C)(C)OC(=O)NCCCCCCCCCCn1c2c(c3ccccc3c1=O)C(=O)c1ccccc1-2 [Compound 5ai]", "GI50", "60300 nM"),
    ("COc1cc2c3c(n(CCCN4CCC(N)CC4)c(=O)c2cc1OC)-c1cc2c(cc1C3=O)OCO2.Cl.Cl [Compound 5u, Dihydrochloride]", "GI50", "120 nM"),
    ("COc1ccc2c(c1)C(=O)c1c-2n(CCCCl)c(=O)c2cc([N+](=O)[O-])ccc12 [Compound 5ba]", "GI50", "794 nM"),
    ("O=C1c2ccccc2-c2c1c1ccc([N+](=O)[O-])cc1c(=O)n2CCCn1ccnc1 [Compound 5f]", "GI50", "274 nM"),
]

Reported GI50 for CN(C)CCCn1c2c(c3cc4c(cc3c1=O)OCO4)C(=O)c1ccccc1-2 [Compound 5b] : what is it?
< 10 nM

Item COc1ccc2c(c1)C(=O)c1c-2n(CCCN)c(=O)c2ccccc12.Cl [Compound 5bg] has what recorded GI50?
< 10 nM

Query (compound): COc1cc2c3c(n(CCN4CCOCC4)c(=O)c2cc1OC)-c1ccccc1C3=O [Compound 5h] ; field requested: GI50
60300 nM

* * *

Test system: CNS SF-539
Assay: COMPARE screening (NCI human cancer cell line screen), cytotoxicity GI50
Type: cell-based
The following ranges of GI50 define the classes used here: interval 1 = under 200 nM, interval 2 = from 200 nM up to 4000 nM, interval 3 = 4000 nM and over

Use these answered entries as a reference point.
# molecule, class-label
rows = [
    ("Cl.O=C1c2ccccc2-c2c1c1ccccc1c(=O)n2CCCNCCO [Compound 5bo]", "interval 2"),
    ("COc1ccc2c(c1)C(=O)c1c-2n(CCCN(C)C)c(=O)c2ccccc12 [Compound 5bq]", "interval 2"),
    ("Cl.NCCCCn1c2c(c3ccccc3c1=O)C(=O)c1ccccc1-2 [Compound 5an]", "interval 1"),
    ("O=C1c2ccccc2-c2c1c1ccccc1c(=O)n2CCCNCCCn1c2c(c3ccccc3c1=O)C(=O)c1ccccc1-2 [Compound 12c]", "interval 2"),
    ("CC(C)(C)OC(=O)NCCCCCCCCn1c2c(c3ccccc3c1=O)C(=O)c1ccccc1-2 [Compound 5ag]", "interval 3"),
]

Hi, small favor: classify O=C1c2ccccc2-c2c1c1ccccc1c(=O)n2CCNCCO [Compound S-2, oracin, reference compound] by its GI50 when you get a moment.
interval 2

Each molecule maps to one class by GI50. Which class for COc1ccc2c(c1)C(=O)c1c-2n(CCCn2ccnc2)c(=O)c2ccccc12 [Compound 5bs] ?
interval 1

Which class does COc1cc2c3c(n(CCCn4cncn4)c(=O)c2cc1OC)-c1cc2c(cc1C3=O)OCO2.Cl [Compound 5n, Hydrochloride] fall in?
interval 2

Which category fits this record: COc1cc2c3c(n(CCCN4CCNCC4)c(=O)c2cc1OC)-c1cc2c(cc1C3=O)OCO2.Cl.Cl [Compound 5p, Dihydrochloride]
interval 1

Any idea which band COc1ccc2c(c1)C(=O)c1c-2n(CCCN=[N+]=[N-])c(=O)c2ccccc12 [Compound 5bf] is in?
interval 3

Bin this entry: O=C1c2ccccc2-c2oc(=O)c3cc4c(cc3c21)OCO4 [Compound 4b]
interval 3

For the record COc1ccc2c(c1)C(=O)c1c-2n(CCCNCCO)c(=O)c2cc([N+](=O)[O-])ccc12.Cl [Compound 5bm] , report the class its GI50 corresponds to.
interval 1

Could you place O=C(O)C(F)(F)F.O=C(O)C(F)(F)F.O=C1c2ccccc2-c2c1c1ccccc1c(=O)n2CCCNCCCCNCCCn1c2c(c3ccccc3c1=O)C(=O)c1ccccc1-2 [Compound 14h] in its proper category? Many thanks.
interval 2

Record COc1cc2c3c(n(CCCN4CCC(N)CC4)c(=O)c2cc1OC)-c1cc2c(cc1C3=O)OCO2.Cl.Cl [Compound 5u, Dihydrochloride] — which class?
interval 1

Which category fits this record: COc1cc2c3c(n(CCCN(C)C)c(=O)c2cc1OC)-c1ccccc1C3=O [Compound 5a]
interval 3

* * *

System: ovarian OVCAR-3
Assay: COMPARE screening (NCI human cancer cell line screen), cytotoxicity GI50
Format: cell-based
Conditions: ovarian OVCAR-3; concentration corresponding to 50% growth inhibition; read-out: cytotoxicity (GI50 in μM) ovarian OVCAR-3
Sorting guide: entries reporting GI50 beneath 10 µM go in the t pile, the rest go in the f pile.

# compound, class-label
records = [
    ("O=C(O)C(F)(F)F.O=C(O)C(F)(F)F.O=C1c2ccccc2-c2c1c1ccc([N+](=O)[O-])cc1c(=O)n2CCCNCCCNCCCn1c2c(c3ccc([N+](=O)[O-])cc3c1=O)C(=O)c1ccccc1-2 [Compound 14n]", "t"),
]

API: query returns whether the compound falls strictly under 10 µM in GI50. Query: CC(C)(C)OC(=O)N(CCCN(CCn1c2c(c3ccccc3c1=O)C(=O)c1ccccc1-2)C(=O)OC(C)(C)C)CCn1c2c(c3ccccc3c1=O)C(=O)c1ccccc1-2 [Compound 13a]
f

In the record for COc1cc2c3c(n(CCNCCCNCCn4c5c(c6cc(OC)c(OC)cc6c4=O)C(=O)c4ccccc4-5)c(=O)c2cc1OC)-c1ccccc1C3=O.O=C(O)C(F)(F)F.O=C(O)C(F)(F)F [Compound 14k] , is GI50 less than 10 µM?
t

Check if GI50 falls below 10 µM for CN(CCCn1c2c(c3ccccc3c1=O)C(=O)c1ccccc1-2)CCCn1c2c(c3ccccc3c1=O)C(=O)c1ccccc1-2 [Compound 12d] .
t

Strictly below 10 µM in GI50? COc1cc2c3c(n(CCCNCCCNCCCn4c5c(c6cc(OC)c(OC)cc6c4=O)C(=O)c4ccccc4-5)c(=O)c2cc1OC)-c1ccccc1C3=O.O=C(O)C(F)(F)F.O=C(O)C(F)(F)F [Compound 14l]
t

Hello, is GI50 of the following compound strictly smaller than 10 µM? COc1cc2c3c(n(CCCNCCCNCCCn4c5c(c6ccccc6c4=O)C(=O)c4ccccc4-5)c(=O)c2cc1OC)-c1cc2c(cc1C3=O)OCO2.O=C(O)C(F)(F)F.O=C(O)C(F)(F)F [Compound 17a]
t

API: query returns whether the compound falls strictly under 10 µM in GI50. Query: O=C(O)C(F)(F)F.O=C(O)C(F)(F)F.O=C1c2ccccc2-c2c1c1ccccc1c(=O)n2CCCNCCCNCCCn1c2c(c3ccccc3c1=O)C(=O)c1ccccc1-2 [Compound 14g]
t

Answer whether the compound O=C(O)C(F)(F)F.O=C(O)C(F)(F)F.O=C1c2ccccc2-c2c1c1ccc([N+](=O)[O-])cc1c(=O)n2CCNCCCNCCn1c2c(c3ccc([N+](=O)[O-])cc3c1=O)C(=O)c1ccccc1-2 [Compound 14m] has GI50 strictly less than 10 µM
t

Here's an entry: O=C(O)C(F)(F)F.O=C(O)C(F)(F)F.O=C1c2ccccc2-c2c1c1ccccc1c(=O)n2CCNCCCNCCn1c2c(c3ccccc3c1=O)C(=O)c1ccccc1-2 [Compound 14d] . Is its GI50 below 10 µM?
t

Strictly below 10 µM in GI50? CC(C)(C)OC(=O)N(CCCCN(CCCn1c2c(c3ccccc3c1=O)C(=O)c1ccccc1-2)C(=O)OC(C)(C)C)CCCn1c2c(c3ccccc3c1=O)C(=O)c1ccccc1-2 [Compound 13d]
f

Determine whether this compound shows GI50 lower than 10 µM (ties excluded): CC(C)(C)OC(=O)N(CCCn1c2c(c3ccccc3c1=O)C(=O)c1ccccc1-2)CCN(CCCn1c2c(c3ccccc3c1=O)C(=O)c1ccccc1-2)C(=O)OC(C)(C)C [Compound 13b]
f

Values from patent US9796753B2
